B1: EPB41L3 (parent)
chain: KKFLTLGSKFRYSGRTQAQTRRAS

Variants of: B1
experiment_notes: protein stability index of a GFP-peptide fusion (GPS, HEK-293T) (PSI 1-6); higher = more stable;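 also: lentivirally expressed fusions sorted by FACS into six bins by GFP to DsRed ratio, PSI derived from sequencing read proportions per bin multiplied by bin number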
experimental_context: c terminus: a fixed tail appended
I would appreciate it if you labelled entries TRUE when protein stability index is 3 or higher, otherwise FALSE.

Take a look at these entries with their results.
In [3]: df
Out[3]:
   mutant_name  group_label
0          K1C        FALSE
1          K1V        FALSE
2         R11I        FALSE
3         S13E         TRUE
4          L4N         TRUE

Ask: # bool: protein stability index of F10N >= 3
Reply: TRUE

Ask: # bool: protein stability index of R22S >= 3
Reply: FALSE

Ask: # check: protein stability index of R11F is greater than or equal to 3
Reply: FALSE

Ask: Is reported protein stability index greater than or equal to 3 here: S24V
Reply: FALSE

Ask: Is it the case that K1T has protein stability index reaching or exceeding 3?
Reply: FALSE

Ask: Hi team, for K9M , is the recorded protein stability index at or above 3?
Reply: FALSE
